Test system: human ovarian cancer cell A2780
experimental protocol: proliferation inhibitory activity against A2780 cells (CellTiter-Glo)
Format: cell-based
condition details: A2780, 72 h, 1 μM test compound, 3 days of culture, read-out: proliferation inhibitory rate (%) of A2780 cells
molecules and their reported inhibition at 1 µM
Express the result in % but write the number alone.

Sample records with inhibition at 1 µM:
>>> quantitative_result("N#C[C@@]1(C2CC2)CCN(c2ccnc(NC(=O)Cc3cccc(-c4cnn(C5CC5)c4)c3)c2)C1=O")
84
>>> quantitative_result("Cn1cc(-c2cccc(CC(=O)Nc3cc(N4CC[C@@](C#N)(C5CC5)C4=O)ccn3)c2)ccc1=O")
72
>>> quantitative_result("Cn1cc(-c2cc(F)cc(CC(=O)Nc3cc(N4CC[C@@](C#N)(C5CC5)C4=O)cc(Br)n3)c2)cn1")
97

Note: attention shifts to another entry.
### Prompt Using the record for N#C[C@@]1(C2CC2)CCN(c2ccnc(NC(=O)Cc3cccc(-c4cnn(CC(F)F)c4)c3)c2)C1=O , report its inhibition at 1 µM.
### Response 88
